- TEST SYSTEM: Adenosine receptor A3 (Homo sapiens, UniProt P0DMS8);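 note: radioligand binding assay with AB-MECA serving as the labeled ligand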
- Sequence (P0DMS8 whole entry): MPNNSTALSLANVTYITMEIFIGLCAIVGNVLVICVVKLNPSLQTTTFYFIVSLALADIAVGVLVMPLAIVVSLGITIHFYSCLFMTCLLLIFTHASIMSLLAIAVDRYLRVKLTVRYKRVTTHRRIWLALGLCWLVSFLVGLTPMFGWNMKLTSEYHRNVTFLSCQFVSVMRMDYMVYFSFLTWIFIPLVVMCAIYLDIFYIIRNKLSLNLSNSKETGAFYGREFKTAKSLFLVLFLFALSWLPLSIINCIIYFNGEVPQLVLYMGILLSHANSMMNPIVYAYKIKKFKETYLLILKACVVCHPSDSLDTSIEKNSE
- Format: cell membranes, CHO-K1, Membrane
- CONDITION INFO: read-out: IC50
Parameter: IC50. Scope: all listed entries.

- COMPOUND: "S=C=Nc1cccc2ccccc12 [1-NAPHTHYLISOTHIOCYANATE]"
  IC50, µM: 6.1
- COMPOUND: "C[C@]12CC[C@@H]3c4ccc(OC(=O)c5ccccc5)cc4CC[C@H]3[C@@H]1CC[C@@H]2O [ESTRADIOL BENZOATE]"
  IC50, µM: 21.8
- COMPOUND: "COCCCOc1ccnc(C[S+]([O-])c2nc3ccccc3[nH]2)c1C (stereo not given)"
  IC50, µM: 3.22
- COMPOUND: "CN(C)c1ccc(C(=C2C=CC(=[N+](C)C)C=C2)c2ccc(N(C)C)cc2)cc1.[Cl-]"
  IC50, µM: 4.17
- COMPOUND: "COC(=O)C1=C(C)NC(C)=C(C(=O)OCC(C)C)C1c1ccccc1[N+](=O)[O-] (stereo not given)"
  IC50, µM: 7.12
